Source listed as patent US20110275692A1.

# SYSTEM UNDER TEST: hEP3A/Gqi5 (Homo sapiens)
# Sequence (P43115 1-390): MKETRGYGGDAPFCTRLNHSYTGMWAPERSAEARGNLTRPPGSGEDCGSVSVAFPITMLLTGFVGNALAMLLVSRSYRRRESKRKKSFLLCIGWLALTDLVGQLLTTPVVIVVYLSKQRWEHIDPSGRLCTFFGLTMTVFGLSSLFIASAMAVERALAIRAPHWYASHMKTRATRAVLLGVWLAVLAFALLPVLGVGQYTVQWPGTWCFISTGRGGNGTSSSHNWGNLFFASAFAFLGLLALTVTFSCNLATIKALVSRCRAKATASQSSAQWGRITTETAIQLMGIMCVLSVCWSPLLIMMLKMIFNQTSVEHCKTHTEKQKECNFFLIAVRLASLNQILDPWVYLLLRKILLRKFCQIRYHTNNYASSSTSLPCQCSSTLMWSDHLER
# TEST SUMMARY: Other receptors: hEP3A FLIPR
MEASURED METRIC: EC50 (nM)
Give the value in nM but do not write nM after it.

Exercise: Tell me the measured EC50 of CCCCCC(O)c1ccc(N2C(=O)CC[C@@H]2C=CCc2ccc(C(=O)O)s2)cc1 (stereo partly shown) [Example 16] , please.
Key: 1410

====

# SYSTEM UNDER TEST: EP2 (Homo sapiens, UniProt P43116)
# Sequence (P43116 whole entry): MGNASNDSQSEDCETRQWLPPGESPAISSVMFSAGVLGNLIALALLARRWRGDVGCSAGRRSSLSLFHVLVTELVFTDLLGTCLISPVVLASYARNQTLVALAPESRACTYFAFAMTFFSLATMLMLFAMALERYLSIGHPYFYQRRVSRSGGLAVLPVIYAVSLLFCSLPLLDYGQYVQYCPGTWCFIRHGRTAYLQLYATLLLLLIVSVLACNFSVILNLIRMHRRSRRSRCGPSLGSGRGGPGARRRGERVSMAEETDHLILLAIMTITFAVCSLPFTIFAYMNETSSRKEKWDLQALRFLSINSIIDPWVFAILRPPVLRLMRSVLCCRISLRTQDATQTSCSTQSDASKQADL
# TEST SUMMARY: EP2 cAMP
MEASURED METRIC: pEC50
As a rule, pEC50 stands for the negative log10 of the concentration, concentration in M.

Exercise: Recorded pEC50 for CCCCCC(O)c1ccc(N2C(=O)CC[C@@H]2C=CCc2ccc(C(=O)O)s2)cc1 (stereo partly shown) with EP2 (Homo sapiens, UniProt P43116), please?
Key: 7.82
